Assay text: chemical genetic growth profiling, strain panel (AID 1159580);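 further: tested at 20 µM; growth read once vehicle control cultures reached saturation at 30 °C; 1 = growth at the plate median or of vehicle wells; lower values mean less growth of the strain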
Condition: S. cerevisiae deletion strains, growth OD, locus YGL240W, strain doc1, hits give low values
About 2,000 (36%) of roughly 5,500 compounds were called active. Roughly 18% stayed inconclusive and do not appear here. This is one part of the list.
Measured normalized growth values are reported for all entries that follow.
Property label: normalized growth

1) COc1ccc(-c2coc3cc(O)ccc3c2=O)c(OC)c1	0.972
2) O=c1c(-c2ccc(O)cc2)coc2cc(O)ccc12	0.958
3) NS(=O)(=O)c1cc2c(cc1Cl)NC=NS2(=O)=O	0.988
4) COc1cc(CNC(=O)CCCC/C=C/C(C)C)ccc1O	0.975
5) CC(=O)Oc1cc(OC(C)=O)c2c(c1)O[C@H](c1ccc(OC(C)=O)c(OC(C)=O)c1)[C@H](OC(C)=O)C2	1.04
6) COc1ccc(-c2coc3cc(O)ccc3c2=O)c(O)c1O	0.964
7) CCOC(=O)n1ccn(C)c1=S	0.995
8) COc1ccc2c(c1)OC/C(=C/c1ccc(OC)c(OC)c1)C2=O	0.852
9) c1ccc2c(c1)sc1ccccc12	0.778
10) CCCCNC(=O)NS(=O)(=O)c1ccc(C)cc1	1.01
11) Cc1ccc(C(=O)Nc2ccc(S(=O)(=O)O)c3cc(S(=O)(=O)O)cc(S(=O)(=O)O)c23)cc1NC(=O)c1cccc(NC(=O)Nc2cccc(C(=O)Nc3cc(C(=O)Nc4ccc(S(=O)(=O)O)c5cc(S(=O)(=O)O)cc(S(=O)(=O)O)c45)ccc3C)c2)c1	1.04
12) COc1ccc(-c2coc3cc(O)ccc3c2=O)cc1	0.916
13) C=C1CCC2[C@](C)(CO)[C@H](O)CC[C@@]2(C)[C@@H]1C/C=C1/C(=O)OC[C@H]1O (stereo partly specified)	0.999
14) C=C[C@@](C)(O)CCC1C(=C)C[C@H](OC(C)=O)C2C(C)(C)CCCC12C (stereo partly specified)	1.01
15) N=c1ccn2c(n1)OC1C(O)C(CO)OC12 (stereo unspecified)	0.978
16) O=C(Oc1cc(OC(=O)c2ccccc2)c2c(c1)O[C@H](c1ccc(OC(=O)c3ccccc3)c(OC(=O)c3ccccc3)c1)[C@@H](OC(=O)c1ccccc1)C2)c1ccccc1	0.977
17) CCCCC/C=C/CCC(=O)N[C@H]1[C@H](Oc2c3cc4cc2Oc2ccc(cc2Cl)[C@@H](O[C@@H]2O[C@H](CO)[C@@H](O)[C@H](O)[C@H]2NC(C)=O)[C@@H]2NC(=O)[C@H](NC(=O)[C@@H]4NC(=O)[C@H]4NC(=O)C(Cc5ccc(c(Cl)c5)O3)NC(=O)[C@H](N)c3ccc(O)c(c3)Oc3cc(O)cc4c3)c3ccc(O)c(c3)-c3c(OC4O[C@H](CO)[C@@H](O)[C@H](O)[C@@H]4O)cc(O)cc3[C@@H](C(=O)O)NC2=O)O[C@H](CO)[C@@H](O)[C@@H]1O (stereo partly specified)	0.973
18) CNCCC(Oc1ccc(C(F)(F)F)cc1)c1ccccc1 (stereo unspecified)	0.975
19) Cc1[nH]c2ccccc2c1CN(C)C	1.01
20) C=C[C@@](C)(O)CCC1C(=C)C[C@H](O)C2C(C)(C)CCCC12C (stereo partly specified)	1
21) CCCc1cc(C(N)=S)ccn1	0.953

====

Assay text: chemical genetic growth profiling, strain panel (AID 1159580);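 further: tested at 20 µM; growth read once vehicle control cultures reached saturation at 30 °C; 1 = growth at the plate median or of vehicle wells; lower values mean less growth of the strain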
Condition: S. cerevisiae deletion strains, growth OD, locus YDR392W, strain spt3, hits give low values
The whole screen tested about 5,500 compounds, of which about 2,000 (36%) were called active. Not shown: some 18% with an inconclusive outcome. This is one part of the list.
I'd appreciate it if you marked entries Condition met when normalized growth is lower than 0.9 and Condition not met when it is not.

1. Nc1nc(=S)c2[nH]cnc2[nH]1	Condition met
2. O=c1c(-c2ccc(O)cc2)coc2cc(O)ccc12	Condition met
3. CCn1cc(C(=O)O)c(=O)c2cc(F)c(N3CCNCC3)nc21	Condition not met
4. CCCCC/C=C/CCC(=O)N[C@H]1[C@H](Oc2c3cc4cc2Oc2ccc(cc2Cl)[C@@H](O[C@@H]2O[C@H](CO)[C@@H](O)[C@H](O)[C@H]2NC(C)=O)[C@@H]2NC(=O)[C@H](NC(=O)[C@@H]4NC(=O)[C@H]4NC(=O)C(Cc5ccc(c(Cl)c5)O3)NC(=O)[C@H](N)c3ccc(O)c(c3)Oc3cc(O)cc4c3)c3ccc(O)c(c3)-c3c(OC4O[C@H](CO)[C@@H](O)[C@H](O)[C@@H]4O)cc(O)cc3[C@@H](C(=O)O)NC2=O)O[C@H](CO)[C@@H](O)[C@@H]1O (stereo partly drawn)	Condition not met
5. O=c1cccc2ccc(O)c(O)c2c1O	Condition met
6. COc1ccc(-c2coc3cc(O)ccc3c2=O)cc1	Condition met
7. NS(=O)(=O)c1cc2c(cc1Cl)NC=NS2(=O)=O	Condition not met

====

Assay text: chemical genetic growth profiling, strain panel (AID 1159580);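 further: tested at 20 µM; growth read once vehicle control cultures reached saturation at 30 °C; 1 = growth at the plate median or of vehicle wells; lower values mean less growth of the strain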
Condition: S. cerevisiae deletion strains, growth OD, locus YDR052C, strain DBF4, hits give low values
Screen size: about 5,500 compounds; about 2,000 (36%) were called active. Not shown: some 18% with an inconclusive outcome. The list shows a part of the results.
Measured normalized growth values are reported for all entries that follow.
Property label: normalized growth

1) N#C/C(=N/Nc1ccc(F)cc1)S(=O)(=O)c1ccc(Cl)cc1	0.964
2) Cc1cccc(NC(=S)N/N=C\c2ccc(F)cc2)c1	0.956
3) CCOC(=O)c1ccc2nc(N=CNO)sc2c1	0.961
4) Cc1c(C(=O)Sc2ccc(F)cc2F)sc2nc(C(F)(F)F)nn12	0.102
5) Cc1ccc(Nc2ccnc3cc(Cl)ccc23)cc1F	0.991
6) O=[N+]([O-])c1ccc(-c2noc(-c3ccno3)n2)o1	0.129
7) O=C(c1csc(-c2ccc(Cl)cc2)c1)N1CCCCC1	0.952
8) Cc1cc(C)cc(Sc2ccc3nnc(-c4ccccc4)n3n2)c1	0.986
9) CCOC(=O)C1C(c2c(F)cccc2Cl)C(C(=O)OCC)C(O)(C(F)(F)F)NC1(O)C(F)(F)F (centres undefined)	0.99
10) COc1cc(Cl)ccc1N/N=C(/C#N)C(N)=O	0.0987
11) O=C(Nc1cccc(C(F)(F)F)c1)c1cncc(C#Cc2ccccc2)c1	0.983
12) CC(=O)c1ccc(Cl)c(NS(=O)(=O)c2cc(Cl)c(Cl)cc2Cl)c1	0.933
13) O=C(NCc1ccc(Cl)c(Cl)c1)c1cccnc1OCC(F)(F)F	0.971
14) O=C(/C=C/c1ccc2c(c1)OCO2)Nc1ccc(Br)cc1	0.953
15) CC(C)(C)c1ccc(N/N=C(\C#N)C(N)=O)cc1	0.146
16) CC(C)c1ccc(COC(=O)Nc2ccc(CSc3ccc(Cl)cc3)o2)cc1	0.993
17) Fc1cc(I)ccc1Nc1ccnc2cc(Cl)ccc12	0.968
18) COc1ccc(C(CC(=O)c2ccccc2)Sc2ccccc2N)cc1OC (centres undefined)	0.974
19) Cc1nn(C)c(C(=O)Sc2ccc(OC(F)(F)F)cc2)c1[N+](=O)[O-]	0.983

====

Measured normalized growth values are reported for all entries that follow.
Assay text: chemical genetic growth profiling, strain panel (AID 1159580);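 further: tested at 20 µM; growth read once vehicle control cultures reached saturation at 30 °C; 1 = growth at the plate median or of vehicle wells; lower values mean less growth of the strain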
Condition: S. cerevisiae deletion strains, growth OD, locus YDR502C, strain sam2, hits give low values
Hit rate of the full screen: of about 5,500 compounds, about 2,000 (36%) were called active. Not shown: some 18% with an inconclusive outcome. The list shows a part of the results.
Property label: normalized growth

1) CN(C)CCN(Cc1cccs1)c1ccccn1	1
2) CC1(C)S[C@@H]2[C@H](NC(=O)[C@H](N)c3ccccc3)C(=O)N2[C@H]1C(=O)O	1.01
3) C[C@@H]1CC(Cl)CC[C@H]1C(=O)OC(C)(C)C (some centres undefined)	0.992
4) COc1ccc(CN(CCN(C)C)c2ccccn2)cc1	0.979
5) C=C[C@@](C)(O)CCC1C(=C)CCC2[C@@](C)(CO)CCC[C@]12C (some centres undefined)	0.985
6) CCCCCCCCCCC[C@@H](C[C@H]1OC(=O)[C@H]1CCCCCC)OC(=O)[C@@H](CC(C)C)NC=O	1.03
7) O=C1CCC(N2C(=O)c3ccccc3C2=O)C(=O)N1 (centres undefined)	0.981
8) CN1CC(CO)=C[C@@H]2c3cccc4[nH]cc(c34)C[C@H]21	0.993
9) CCCCC[C@H]1C(=O)O[C@H](C)[C@H](NC(=O)c2cccc(NC=O)c2O)C(=O)O[C@@H](C)[C@@H]1OC(=O)CC(C)C	0.939
10) C=C1CCC2[C@](C)(CO)[C@H](O)CC[C@@]2(C)[C@@H]1C/C=C1/C(=O)OC[C@H]1O (some centres undefined)	1.05
11) CC1(C)CCC[C@@]2(C)C1[C@@H](O)C[C@]1(C)C2CC[C@@H]2[C@@]3(C)CC[C@H](C(C)(C)O)[C@@H]3CC[C@@]21C (some centres undefined)	0.989
12) C[C@]12CCC(=O)C=C1C=CC1C2CC[C@@]2(C)C1CC[C@@]21CCC(=O)O1 (some centres undefined)	0.914
13) C[C@@H]1O[C@@H](O[C@H]2[C@H](Oc3cc(O)c4c(=O)cc(-c5ccc(O)cc5)oc4c3)O[C@H](CO)[C@@H](O)[C@@H]2O)[C@H](O)[C@H](O)[C@H]1O	0.99
14) O=C(OCC(O)CO)c1ccccc1Nc1ccnc2cc(Cl)ccc12 (centres undefined)	0.975
15) C=C[C@@](C)(O)CCC1C(=C)C[C@H](O)C2C(C)(C)CCCC12C (some centres undefined)	1.01
16) CN1CC(=O)N=C1N	0.995
17) Cc1[nH]c2ccccc2c1CN(C)C	0.987
18) CCC(C)C(=O)O[C@@H]1C[C@@]2(C)[C@H](c3ccoc3)OC(=O)CC23OC2(C)OC34[C@H](OC(=O)C(C)C)[C@@]3(O)[C@@H](OC(=O)C5(C)OC5C)[C@@]5(C)C[C@]3(O)[C@@](C)([C@H]5CC(=O)OC)C14O2 (some centres undefined)	1.03
19) C=C[C@@](C)(O)CCC1C(=C)C[C@H](OC(C)=O)C2C(C)(C)CCCC12C (some centres undefined)	1.03

Cited source for all entries: PubChem BioAssay AID1159580
